# System: DLD-1
# Measurement Notes: Cytotoxicity against human DLD1 cells after 72 hrs by WST-8 assay
# Format: functional, cell-based
# Assay Conditions: DLD-1, 72 h
Recorded IC50 for the following molecules
Measured Endpoint: IC50 (µM)

molecule=Cc1nc(Nc2ncc(C(=O)Nc3c(C)cccc3Cl)s2)cc(N2CCN(CCO)CC2)n1 study_system=DLD-1 censor_symbol== measured=4.6
molecule=COc1cc2c(Nc3nc4ccc(C(=O)Nc5c(C)cccc5C)cc4s3)ncnc2cc1OCCCN1CCOCC1 study_system=DLD-1 censor_symbol=> measured=100
molecule="COc1cc2c(Nc3nc4ccc(C(=O)Nc5c(C)cccc5Cl)cc4s3)ncnc2cc1OCCCN1CCCCC1C (configuration not stated)" study_system=DLD-1 censor_symbol== measured=6.7
molecule=COc1cc2c(Nc3nc4ccc(C(=O)Nc5c(C)cccc5Cl)cc4s3)ncnc2cc1OCCCN1CCCC1 study_system=DLD-1 censor_symbol== measured=60.7
molecule=CCN(CC)CCCOc1cc2ncnc(Nc3nc4ccc(C(=O)Nc5c(C)cccc5Cl)cc4s3)c2cc1OC study_system=DLD-1 censor_symbol== measured=11.7
molecule=CCN(CC)CCCOc1cc2ncnc(Nc3nc4ccc(C(=O)Nc5c(C)cccc5C)cc4s3)c2cc1OC study_system=DLD-1 censor_symbol=> measured=100
molecule="COc1cc2c(Nc3nc4ccc(C(=O)Nc5c(C)cc(C)cc5C)cc4s3)ncnc2cc1OCCCN1CCCCC1C (configuration not stated)" study_system=DLD-1 censor_symbol== measured=5.7

* * *

Recorded pIC50 for the following compounds
# Tested on: NCI-H661
# Measurement Notes: Cytotoxicity against human NCI-H661 cells after 72 hrs by WST-8 assay
# Type: functional, cell-based
# Assay Conditions: NCI-H661, 72 h
pIC50: −log10 of the molar value.
Measured Endpoint: pIC50

cpd_smiles=COc1cc2c(Nc3nc4ccc(C(=O)Nc5c(C)cccc5C)cc4s3)ncnc2cc1OCCCN1CCOCC1 measured_endpoint=pIC50 censor_symbol=< measured=4.00
cpd_smiles=COc1cc2c(Nc3nc4ccc(C(=O)Nc5c(C)cccc5C)cc4s3)ncnc2cc1OCCCN1CCC(C)CC1 measured_endpoint=pIC50 censor_symbol== measured=4.14
cpd_smiles=COc1cc2c(Nc3nc4ccc(C(=O)Nc5c(C)cc(C)cc5C)cc4s3)ncnc2cc1OCCCN1CCOCC1 measured_endpoint=pIC50 censor_symbol== measured=4.74

* * *

# Study System: UniProt:P00519
# Sequence (P00519 whole entry): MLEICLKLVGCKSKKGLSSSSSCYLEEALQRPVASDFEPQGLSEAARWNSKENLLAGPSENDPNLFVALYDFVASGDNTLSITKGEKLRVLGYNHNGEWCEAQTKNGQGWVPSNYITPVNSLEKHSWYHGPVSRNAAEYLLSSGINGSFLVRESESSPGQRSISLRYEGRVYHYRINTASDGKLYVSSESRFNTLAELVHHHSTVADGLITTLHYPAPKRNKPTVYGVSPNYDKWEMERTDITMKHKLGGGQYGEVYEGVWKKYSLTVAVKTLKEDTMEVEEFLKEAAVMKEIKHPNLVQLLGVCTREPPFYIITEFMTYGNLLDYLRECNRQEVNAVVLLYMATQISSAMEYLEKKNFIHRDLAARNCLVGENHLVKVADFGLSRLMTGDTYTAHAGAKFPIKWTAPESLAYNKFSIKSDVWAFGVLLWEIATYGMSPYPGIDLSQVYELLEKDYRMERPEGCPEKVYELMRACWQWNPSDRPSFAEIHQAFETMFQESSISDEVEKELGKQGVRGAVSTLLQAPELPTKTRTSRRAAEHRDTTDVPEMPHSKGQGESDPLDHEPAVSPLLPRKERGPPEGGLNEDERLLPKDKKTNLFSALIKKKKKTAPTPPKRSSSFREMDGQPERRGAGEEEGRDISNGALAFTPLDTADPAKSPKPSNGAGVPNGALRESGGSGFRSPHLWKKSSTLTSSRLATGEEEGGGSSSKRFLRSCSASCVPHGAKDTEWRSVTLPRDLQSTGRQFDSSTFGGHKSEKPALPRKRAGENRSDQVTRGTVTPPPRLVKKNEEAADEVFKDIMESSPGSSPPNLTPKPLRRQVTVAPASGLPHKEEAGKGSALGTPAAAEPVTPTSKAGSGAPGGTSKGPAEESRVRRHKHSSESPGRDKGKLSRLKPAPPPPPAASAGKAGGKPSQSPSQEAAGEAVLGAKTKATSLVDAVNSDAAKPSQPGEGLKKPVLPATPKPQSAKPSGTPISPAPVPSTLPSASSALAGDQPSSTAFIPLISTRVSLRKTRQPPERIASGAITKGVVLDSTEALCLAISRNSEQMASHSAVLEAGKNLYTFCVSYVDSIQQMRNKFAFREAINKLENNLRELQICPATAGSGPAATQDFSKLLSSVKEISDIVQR
# Assay Conditions: at 10 µM
# Description: Inhibition of human recombinant ABL at 10 uM relative to control
Recorded inhibition for the following compounds
Measured Endpoint: inhibition (%)

cpd_smiles=CCN(CC)CCCOc1cc2ncnc(Nc3nc4ccc(C(=O)Nc5c(C)cc(C)cc5C)cc4s3)c2cc1OC value_unit=% measured=76.3
cpd_smiles=COc1cc2c(Nc3nc4ccc(C(=O)Nc5c(C)cccc5C)cc4s3)ncnc2cc1OCCCN1CCCCC1 value_unit=% measured=39
cpd_smiles=CCN(CC)CCCOc1cc2ncnc(Nc3nc4ccc(C(=O)Nc5c(C)cccc5C)cc4s3)c2cc1OC value_unit=% measured=50
cpd_smiles=COc1cc2c(Nc3nc4ccc(C(=O)Nc5c(C)cccc5C)cc4s3)ncnc2cc1OCCCN1CCC(C)CC1 value_unit=% measured=54.2
cpd_smiles=CCN(CC)CCCOc1cc2ncnc(Nc3nc4ccc(C(=O)Nc5c(C)cccc5Cl)cc4s3)c2cc1OC value_unit=% measured=67.1
cpd_smiles=COc1cc2c(Nc3nc4ccc(C(=O)Nc5c(C)cccc5C)cc4s3)ncnc2cc1OCCCN1CCOCC1 value_unit=% measured=41.7
cpd_smiles=COc1cc2c(Nc3nc4ccc(C(=O)Nc5c(C)cccc5Cl)cc4s3)ncnc2cc1OCCCN1CCCCC1 value_unit=% measured=49.9
cpd_smiles=COc1cc2c(Nc3nc4ccc(C(=O)Nc5c(C)cc(C)cc5C)cc4s3)ncnc2cc1OCCCN1CCC(C)CC1 value_unit=% measured=68.2

Source: ChEMBL document CHEMBL2375301
